Recorded values, source the supplement of paper PMC4466140.

Listed next: entries and their corresponding SPOT peptide array binding signal intensity.
# experimental.target: ScSla1-D1-D2
# assay.procedure: SPOT peptide array binding signal intensity (averaged, normalized) (arbitrary units (background-subtracted, floor 0; scale differs between SH3 domains)); higher = stronger binding of the SH3 domain to the peptide
Lab note: record the figure alone, no unit after it.

Guide cases for SPOT peptide array binding signal intensity, answers given:
{"binder": "SLSRRRFSLPSMPNV", "data.value": 636}
{"binder": "APERAVPILPPRNNV", "data.value": 34.5}

Now let's try a different one.
-- ask Requested read-out: SPOT peptide array binding signal intensity. Entry: `KNRKNLPTIPIRLSG`
-- reply 2930
